Target: human TAAR1 (Homo sapiens, UniProt Q96RJ0)
Sequence (Q96RJ0 1-339): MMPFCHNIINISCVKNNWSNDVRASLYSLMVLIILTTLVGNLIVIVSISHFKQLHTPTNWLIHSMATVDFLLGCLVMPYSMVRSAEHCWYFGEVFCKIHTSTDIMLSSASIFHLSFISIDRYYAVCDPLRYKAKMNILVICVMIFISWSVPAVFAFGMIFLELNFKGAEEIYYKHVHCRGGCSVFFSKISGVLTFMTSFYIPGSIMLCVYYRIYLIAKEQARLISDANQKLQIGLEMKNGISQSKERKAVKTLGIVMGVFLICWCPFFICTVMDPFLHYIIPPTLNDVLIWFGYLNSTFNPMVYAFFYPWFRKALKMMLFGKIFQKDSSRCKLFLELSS
Test: TAAR1 agonist activity, Hit Hunter cAMP assay
Assay type: cell-based
Conditions: cAMP accumulation; n.a. = no activity at 10–5 M; read-out: TAAR1 Ago EC50
assay-endpoint: EC50 (µM)

> print(dat)
                   sample.smiles  assay.endpoint   val
1                 NCCc1ccc(O)cc1            EC50  5.87
2  [H]/N=C(\N)NN=Cc1c(Cl)cncc1Cl            EC50  11.3
